Reported values of refractive index for individual entries
- testProtocol: refractive index (Na D-line) (dimensionless)
- protocolConditions: 298.15 K; 101.33 kPa; Liquid; Standard Abbe refractometry

compound | refractive index
c1ccccc1 [benzene] | 1.49774
CCCCCCCCC [nonane] | 1.40326
CCOS(=O)(=O)[O-].CCn1cc[n+](C)c1 [1-ethyl-3-methylimidazolium ethyl sulfate] | 1.4791
CCCCCCC [heptane] | 1.38515
CCCCCCCC [octane] | 1.39519
CCCCCC [hexane] | 1.37234
